// Geo mean (%) at 50 nM lookup, one value per entry
- experimental_target: T1, human CD200R1 expressed on cells (Jurkat-CD200R1, U937-CD200R1, HH cells) (human, UniProt Q8TD46 25-348)
- T1 construct: whole, on cells; also called HH (CRL-2105); cell surface-expressed CD200R1
- T1 sequence (looked up): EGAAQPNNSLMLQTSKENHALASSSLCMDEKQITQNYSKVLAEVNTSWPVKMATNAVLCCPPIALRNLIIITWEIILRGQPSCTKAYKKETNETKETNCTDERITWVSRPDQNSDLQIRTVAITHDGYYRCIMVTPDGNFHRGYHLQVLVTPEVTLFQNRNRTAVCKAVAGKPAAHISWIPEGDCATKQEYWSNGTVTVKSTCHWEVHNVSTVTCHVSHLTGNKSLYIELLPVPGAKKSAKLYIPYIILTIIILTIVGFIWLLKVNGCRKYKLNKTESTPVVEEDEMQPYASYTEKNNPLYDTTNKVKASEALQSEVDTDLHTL
- protocol_details: flow cytometry, HH cells; drawn table

binder	unit_abbreviation	Geo mean (%) at 50 nM
P001018 (huOX108.1) (antibody, V domains shown, also called humanized antibody P001018) VH: QVQLVQSGAEVKKPGASVKVSCKASGYTFTSYVMHWVRQAPGQGLEWMGYINPYNDDTNYNEKFKGRVTMTRDTSTSTVYMELSSLRSEDTAVYYCAREDYYGSRWGYWGQGTLVTVSS VL: DIVLTQSPASLAVSPGQRATITCRASKSVSTSGYSYMHWYQQKPGQPPKLLIYLASNLESGVPARFSGSGSGTDFTLTINPVEANDTANYYCQHSRELLTFGQGTKVEIK	%	79.7
P001018 scFv mutant L3-L94S (scFv) scFv: QVQLVQSGAEVKKPGASVKVSCKASGYTFTSYVMHWVRQAPGQGLEWMGYINPYNDDTNYNEKFKGRVTMTRDTSTSTVYMELSSLRSEDTAVYYCAREDYYGSRWGYWGQGTLVTVSSGGGGSGGGGSGGGGSDIVLTQSPASLAVSPGQRATITCRASKSVSTSGYSYMHWYQQKPGQPPKLLIYLASNLESGVPARFSGSGSGTDFTLTINPVEANDTANYYCQHSRESLTFGQGTKVEIK	%	76.6
P001018 scFv mutant L3-T96R (scFv) scFv: QVQLVQSGAEVKKPGASVKVSCKASGYTFTSYVMHWVRQAPGQGLEWMGYINPYNDDTNYNEKFKGRVTMTRDTSTSTVYMELSSLRSEDTAVYYCAREDYYGSRWGYWGQGTLVTVSSGGGGSGGGGSGGGGSDIVLTQSPASLAVSPGQRATITCRASKSVSTSGYSYMHWYQQKPGQPPKLLIYLASNLESGVPARFSGSGSGTDFTLTINPVEANDTANYYCQHSRELLRFGQGTKVEIK	%	91.1
